Test system: Saccharomyces cerevisiae;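 note: PSI is a weighted mean of sequencing reads over stability bins, variants kept only with over 10 reads, mCherry proximal and sfGFP distal, peptide attached via GGGS linker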
Test: protein stability index of tFT-peptide fusion (C-terminal peptide) (PSI (0-1 scale)); higher = more stable (slower turnover)
Conditions: genetic background: wild type; temperature: 30 C
Examples of sequences with documented protein stability index follow.
Give a plain numeric answer without units written out.

Below: 4 sequences and their reported protein stability index.
sequencetext=SYPLSRPCSPCD testreadout="protein stability index" assayresult=0.677
sequencetext=LACTGFPPPFPL testreadout="protein stability index" assayresult=0.675
sequencetext=RGMPMARVRSAG testreadout="protein stability index" assayresult=0.693
sequencetext=PPRASQSLLAVP testreadout="protein stability index" assayresult=0.656

Lab note: sequence FLHPPPSALVLP tested on Saccharomyces cerevisiae; recorded protein stability index was 0.726

Lab note: sequence GLGSSVLQVGVR tested on Saccharomyces cerevisiae; recorded protein stability index was 0.689

Lab note: sequence LESGSARLFLWI tested on Saccharomyces cerevisiae; recorded protein stability index was 0.746
